Tested on: 485176-168-R4-J1-PDC complex spheroid growth
Experiment: Anticancer human tumor 485176-168-R4-J1-PDC patient-derived pancreatic adenocarcinoma cell line growth inhibition [RAS]
Conditions: second compound 3.16 µM; first compound 1 µM; stronger effect = lower value
# viability, T/C per record follows
Form entry: value (%) — number only.

Solved entries (count: 4):
Nc1ccn(C2OC(CO)C(O)C2(F)F)c(=O)n1 (stereo not drawn) + C#Cc1c(F)ccc2cc(O)cc(-c3ncc4c(N5CC6CCC(C5)N6)nc(OCC56CCCN5CC(F)C6)nc4c3F)c12 ... 10.3
CC(C)NCC(C(=O)N1CCN(c2ncnc3c2C(C)CC3O)CC1)c1ccc(Cl)cc1 (stereo not drawn) + C#Cc1c(F)ccc2cc(O)cc(-c3ncc4c(N5CC6CCC(C5)N6)nc(OCC56CCCN5CC(F)C6)nc4c3F)c12 ... 53.8
O=C(c1ccc(F)c(F)c1Nc1ccc(I)cc1F)N1CC(O)([C@@H]2CCCCN2)C1 + C#Cc1c(F)ccc2cc(O)cc(-c3ncc4c(N5CC6CCC(C5)N6)nc(OCC56CCCN5CC(F)C6)nc4c3F)c12 ... 39.2
CCN1CCN(Cc2ccc(Nc3ncc(F)c(-c4cc(F)c5nc(C)n(C(C)C)c5c4)n3)nc2)CC1 + C#Cc1c(F)ccc2cc(O)cc(-c3ncc4c(N5CC6CCC(C5)N6)nc(OCC56CCCN5CC(F)C6)nc4c3F)c12 ... 61.3

IN: Please report the measured viability, T/C for CC(=O)OC12COC1CC(O)C1(C)C(=O)C(O)C3=C(C)C(OC(=O)C(O)C(NC(=O)OC(C)(C)C)c4ccccc4)CC(O)(C(OC(=O)c4ccccc4)C21)C3(C)C (stereo not drawn) + C#Cc1c(F)ccc2cc(O)cc(-c3ncc4c(N5CC6CCC(C5)N6)nc(OCC56CCCN5CC(F)C6)nc4c3F)c12
OUT: 13.8

IN: State its viability, T/C: C=CC(=O)N1CCN(c2nc(OCC3CCCN3C)nc3c(F)c(-c4nc(N)cc(C)c4C(F)(F)F)c(Cl)cc23)C(C)C1 (stereo not drawn) + C#Cc1c(F)ccc2cc(O)cc(-c3ncc4c(N5CC6CCC(C5)N6)nc(OCC56CCCN5CC(F)C6)nc4c3F)c12
OUT: 70.3

IN: For CC(Nc1ccc2c(c1)OCCn1cc(N3C(=O)OCC3C(F)F)nc1-2)C(N)=O (stereo not drawn) + C#Cc1c(F)ccc2cc(O)cc(-c3ncc4c(N5CC6CCC(C5)N6)nc(OCC56CCCN5CC(F)C6)nc4c3F)c12 , write its viability, T/C.
OUT: 79.9

IN: For C[C@@H](NC(=O)c1ncnc(N)c1Cl)c1ncc(C(=O)Nc2cc(C(F)(F)F)c(Cl)cn2)s1 + C#Cc1c(F)ccc2cc(O)cc(-c3ncc4c(N5CC6CCC(C5)N6)nc(OCC56CCCN5CC(F)C6)nc4c3F)c12 , write its viability, T/C.
OUT: 80.5

IN: Given the compound CC1(O)CCCC1n1c(=O)c(C(F)F)cc2cnc(NC3CCN(S(C)(=O)=O)CC3)nc21 (stereo not drawn) + C#Cc1c(F)ccc2cc(O)cc(-c3ncc4c(N5CC6CCC(C5)N6)nc(OCC56CCCN5CC(F)C6)nc4c3F)c12 , write its reported viability, T/C.
OUT: 62.2

IN: Note viability, T/C for the compound shown: C=CC(=O)Nc1cc(Nc2nccc(-c3cn(C)c4ccccc34)n2)c(OC)cc1N(C)CCN(C)C + C#Cc1c(F)ccc2cc(O)cc(-c3ncc4c(N5CC6CCC(C5)N6)nc(OCC56CCCN5CC(F)C6)nc4c3F)c12
OUT: 68.5

IN: Supply recorded viability, T/C for CCC(CC)c1cc(NC2CCC(N)C2)n2nccc2n1 (stereo not drawn) + C#Cc1c(F)ccc2cc(O)cc(-c3ncc4c(N5CC6CCC(C5)N6)nc(OCC56CCCN5CC(F)C6)nc4c3F)c12 here.
OUT: 75.2

IN: Specify viability, T/C for NC1c2ccccc2OC12CCN(c1cnc3c(N4CCCc5ncccc54)n[nH]c3n1)CC2 (stereo not drawn) + C#Cc1c(F)ccc2cc(O)cc(-c3ncc4c(N5CC6CCC(C5)N6)nc(OCC56CCCN5CC(F)C6)nc4c3F)c12 and stop.
OUT: 82.8

IN: Give a short answer stating reported viability, T/C for Cc1nc(N2CCC3(CC2)COC(C)C3N)c(CO)nc1Sc1ccnc(N)c1Cl (stereo not drawn) + C#Cc1c(F)ccc2cc(O)cc(-c3ncc4c(N5CC6CCC(C5)N6)nc(OCC56CCCN5CC(F)C6)nc4c3F)c12 .
OUT: 75.9

----------
Tested on: 485176-168-R4-J1-PDC complex spheroid growth
Experiment: Anticancer human tumor 485176-168-R4-J1-PDC cell line growth inhibition [RAS]; active = viability on the fitted dose curve at most 10% of control; inactive = the rest;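 further: spheroids exposed to compounds for seven days before readout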
Conditions: second compound 1 µM; first compound 1 µM
The reply should be one of these categories: class 1 (active), class 0 (inactive)

# count of solved cases: 3
CCN1CCN(Cc2ccc(Nc3ncc(F)c(-c4cc(F)c5nc(C)n(C(C)C)c5c4)n3)nc2)CC1 + C#Cc1c(F)ccc2cc(O)cc(-c3ncc4c(N5CC6CCC(C5)N6)nc(OCC56CCCN5CC(F)C6)nc4c3F)c12 ... class 0
Cc1nc(N2CCC3(CC2)COC(C)C3N)c(CO)nc1Sc1ccnc(N)c1Cl (centres undefined) + C=CC(=O)N1CCN(c2nc(OCC3CCCN3C)nc3c(F)c(-c4nc(N)cc(C)c4C(F)(F)F)c(Cl)cc23)C(C)C1 ... class 0
CCC(CC)c1cc(NC2CCC(N)C2)n2nccc2n1 (centres undefined) + C=CC(=O)N1CCN(c2nc(OCC3CCCN3C)nc3c(F)c(-c4nc(N)cc(C)c4C(F)(F)F)c(Cl)cc23)C(C)C1 ... class 0

IN: Record request — test call for NC1c2ccccc2OC12CCN(c1cnc3c(N4CCCc5ncccc54)n[nH]c3n1)CC2 (centres undefined) + C=CC(=O)N1CCN(c2nc(OCC3CCCN3C)nc3c(F)c(-c4nc(N)cc(C)c4C(F)(F)F)c(Cl)cc23)C(C)C1
OUT: class 0

IN: Please share the test call associated with NC1c2ccccc2OC12CCN(c1cnc3c(N4CCCc5ncccc54)n[nH]c3n1)CC2 (centres undefined) + C#Cc1c(F)ccc2cc(O)cc(-c3ncc4c(N5CC6CCC(C5)N6)nc(OCC56CCCN5CC(F)C6)nc4c3F)c12 .
OUT: class 0

IN: Query: recorded result category for CC(C)NCC(C(=O)N1CCN(c2ncnc3c2C(C)CC3O)CC1)c1ccc(Cl)cc1 (centres undefined) + C=CC(=O)N1CCN(c2nc(OCC3CCCN3C)nc3c(F)c(-c4nc(N)cc(C)c4C(F)(F)F)c(Cl)cc23)C(C)C1 in this test
OUT: class 0

----------
Tested on: 485176-168-R4-J1-PDC complex spheroid growth
Assay: Anticancer human tumor 485176-168-R4-J1-PDC cell line growth inhibition [RAS];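 further: spheroids exposed to compounds for seven days before readout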;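 on viability, T/C: luminescence viability expressed relative to DMSO vehicle wells set as 100%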
Conditions: second compound 1 µM; first compound 0.1 µM; stronger effect = lower value
Consider the cut-off 70%. If the recorded viability, T/C is strictly smaller, the label is 1; if not, the label is 0.

Please review the following examples before continuing.
CC(=O)OC12COC1CC(O)C1(C)C(=O)C(O)C3=C(C)C(OC(=O)C(O)C(NC(=O)OC(C)(C)C)c4ccccc4)CC(O)(C(OC(=O)c4ccccc4)C21)C3(C)C (stereo not given) + C=CC(=O)N1CCN(c2nc(OCC3CCCN3C)nc3c(F)c(-c4nc(N)cc(C)c4C(F)(F)F)c(Cl)cc23)C(C)C1 ... 1
Nc1ccn(C2OC(CO)C(O)C2(F)F)c(=O)n1 (stereo not given) + C#Cc1c(F)ccc2cc(O)cc(-c3ncc4c(N5CC6CCC(C5)N6)nc(OCC56CCCN5CC(F)C6)nc4c3F)c12 ... 1
CC(C)n1nc(-c2ccc3oc(N)nc3c2)c2c(N)ncnc21 + C#Cc1c(F)ccc2cc(O)cc(-c3ncc4c(N5CC6CCC(C5)N6)nc(OCC56CCCN5CC(F)C6)nc4c3F)c12 ... 1

Let us examine a further case.
IN: I'd appreciate it if you could check whether Cc1nc(N2CCC3(CC2)COC(C)C3N)c(CO)nc1Sc1ccnc(N)c1Cl (stereo not given) + C=CC(=O)N1CCN(c2nc(OCC3CCCN3C)nc3c(F)c(-c4nc(N)cc(C)c4C(F)(F)F)c(Cl)cc23)C(C)C1 has viability, T/C smaller than 70%.
OUT: 0

----------
Each entry below lists one item and its recorded pIC50 value.
Test system: 485176-168-R4-J1-PDC complex spheroid growth
Assay: Anticancer human tumor 485176-168-R4-J1-PDC cell line growth inhibition [RAS];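 further: spheroids exposed to compounds for seven days before readout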
Settings: curve of first compound; second compound 10 µM
Kindly note that pIC50 refers to -log10 of the concentration in mol/L and answer with the value alone.

O=C(c1ccc(F)c(F)c1Nc1ccc(I)cc1F)N1CC(O)([C@@H]2CCCCN2)C1 + C#Cc1c(F)ccc2cc(O)cc(-c3ncc4c(N5CC6CCC(C5)N6)nc(OCC56CCCN5CC(F)C6)nc4c3F)c12 ... 7.27

IN: Determine its reported pIC50: Nc1ccn(C2OC(CO)C(O)C2(F)F)c(=O)n1 (stereo not given) + C#Cc1c(F)ccc2cc(O)cc(-c3ncc4c(N5CC6CCC(C5)N6)nc(OCC56CCCN5CC(F)C6)nc4c3F)c12
OUT: 7.82

IN: Specify reported pIC50 for the molecule shown: CCC(CC)c1cc(NC2CCC(N)C2)n2nccc2n1 (stereo not given) + C#Cc1c(F)ccc2cc(O)cc(-c3ncc4c(N5CC6CCC(C5)N6)nc(OCC56CCCN5CC(F)C6)nc4c3F)c12
OUT: 5.84
